Reference source for all entries: PubChem BioAssay (NCATS)

test system: MCC-13; test: qHTS assay to identify novel small-molecules to repurpose for Merkel cell carcinoma treatment (AID 1296009); details: MCC and control cell lines, CellTiter-Glo viability, 72 h; series mostly up to 46 µM; further: nearly all actives have a fitted effect of over 60% in size; further: potency means the concentration at half of the fitted maximal effect
Inconclusive results are not listed. The source made the active and inactive calls. The call rests on the fitted dose curve; in most records, active means well fitted inhibition curve with a large enough effect; inconclusive means small, poorly fitted or top-dose-only effect; inactive means flat fitted curve, though single readings scatter.
Property: Potency

| Molecule | Potency |
| --- | --- |
| NC(=O)c1ncn([C@@H]2O[C@H](CO)[C@@H](O)[C@@H]2O)c1N | inactive |
| COc1cc([C@@H]2c3cc4c(cc3[C@H](O)[C@H]3COC(=O)[C@@H]23)OCO4)cc(OC)c1OC | 0.662 µM (active) |
| CC1(C)CC(O)CC(C)(C)N1[O] | inactive |
| N#CC(=Cc1ccc(O)c(O)c1)C(=O)NCc1ccccc1 | inactive |
| FC(F)c1nc2ccccc2n1-c1nc(N2CCOCC2)nc(N2CCOCC2)n1 | inactive |
| CC1(C)[C@H](O[C@H]2O[C@H](C(=O)O)[C@@H](O)[C@H](O)[C@H]2O[C@@H]2O[C@H](C(=O)O)[C@@H](O)[C@H](O)[C@H]2O)CC[C@@]2(C)[C@H]1CC[C@]1(C)[C@H]2C(=O)C=C2[C@H]3C[C@@](C)(C(=O)O)CC[C@]3(C)CC[C@]21C | inactive |
| COc1cc(OC)c(NC(=O)Nc2cc(C)on2)cc1Cl | inactive |
| Cc1cnc(Nc2ccc(CN3CCOCC3)cc2)nc1Nc1cccc(S(=O)(=O)NC(C)(C)C)c1 | 13.2 µM (active) |
| Cc1cn([C@@H]2O[C@H](CO)[C@@H](O)[C@H]2F)c(=O)[nH]c1=O | inactive |
| CC(=O)O[C@]1(C(C)=O)CC[C@H]2[C@@H]3C=C(C)C4=CC(=O)CC[C@]4(C)[C@@H]3CC[C@@]21C | inactive |

Field: Potency. Fill in for each record below.
1. CON=C(C(=O)N[C@@H]1C(=O)N2C(C(=O)O)=C(CSC(=O)c3ccco3)CS[C@H]12)c1csc(N)n1
2. C[C@@H](Oc1ccc2[nH]nc(C=Cc3cnn(CCO)c3)c2c1)c1c(Cl)cncc1Cl
3. CC(C=CC(=O)NO)=C[C@@H](C)C(=O)c1ccc(N(C)C)cc1
4. CCC(C=C[C@@H]1OC(=O)C=C[C@H]1C)=C[C@H](C)CC=CC(C)=C[C@@H](C)C(=O)[C@@H](C)[C@H](O)[C@@H](C)CC(C)=CC(=O)O
5. CC(O)(C#Cc1ccc2c(c1)N(c1nc(N)ncc1Cl)CC2)c1nccs1 (stereo not drawn)
6. CCC[C@H]1C[C@H](C(=O)N[C@@H]([C@@H]2O[C@@H](SC)[C@@H](O)[C@@H](O)[C@@H]2O)[C@H](C)Cl)N(C)C1
7. O=C(c1ccc(F)cc1)N1CCC[C@H](c2nc(-c3ccc(F)cc3)no2)C1

Marked response:
inactive
26.4 µM (active)
8.33 µM (active)
0.0984 µM (active)
inactive
inactive
inactive

In plain terms, COC(=O)[C@@H]1CC2=CC(=O)CC[C@]2(C)[C@@]23O[C@@H]2C[C@@]2(C)[C@H](CC[C@@]24CCC(=O)O4)[C@@H]13 has a documented Potency of inactive

---

assay: qHTS of pediatric cancer cell lines to identify multiple opportunities for drug repurposing: Primary screen for Rh30 cells (AID 1347107); conditions: Rh30 rhabdomyosarcoma viability, CellTiter-Glo luminescence, 48 h; series mostly up to 46 µM; further: nearly all actives have a fitted effect of over 75% in size
Results filed as inconclusive are left out. Calls of active or inactive are those of the source. The call rests on the fitted dose curve; in most records, active means well fitted cell-killing curve with a large enough effect; inconclusive means small, poorly fitted or top-dose-only effect; inactive means no such curve, though single readings can be large or run the other way.
API: response.call in true = active, false = inactive

Examples with answers:
| Compound | Qualitative label |
| --- | --- |
| O=C1NC(O)CCN1[C@@H]1O[C@H](CO)[C@H](O)[C@H]1O (stereo partly drawn) | false |
| O=C(O)c1ccc(Nc2ncc3c(n2)-c2ccc(Cl)cc2C(c2c(F)cccc2F)=NC3)cc1 | true |
| CC[C@H](CC[C@@H](C)[C@H]1CC[C@H]2[C@@H]3CC=C4C[C@@H](O)CC[C@]4(C)[C@@H]3CC[C@]12C)C(C)C | false |
| COc1cc(C[C@@H](CO)[C@H](CO)Cc2ccc(O)c(OC)c2)ccc1O | true |
| CC(C)N(CC[C@H](c1ccccc1)c1cc(CO)ccc1O)C(C)C | false |

Exam item: Status in this test for CC(=O)[C@]1(O)Cc2c(O)c3c(c(O)c2[C@@H](O[C@H]2C[C@H](N)[C@@H](O)[C@H](C)O2)C1)C(=O)c1ccccc1C3=O ?
Marked response: true

Exam item: Could you kindly confirm the outcome this assay logged for COC1=C(OC)C(=O)C(CC=C(C)CCC=C(C)CCC=C(C)CCC=C(C)CCC=C(C)CCC=C(C)CCC=C(C)CCC=C(C)CCC=C(C)CCC=C(C)C)=C(C)C1=O ?
Marked response: false

Exam item: So what was the verdict on COc1ccc(C(C)=O)c(O)c1 in this test?
Marked response: false

Exam item: What call does the record list for CCN(C(=O)c1c(O)c2c(Cl)cccc2n(C)c1=O)c1ccccc1 ?
Marked response: false

Exam item: Hi, sorry to bother you, what did the test record for CN(C)c1ccc(C(=O)NCCCCCCC(=O)NO)cc1 ?
Marked response: true

Exam item: Just curious, what result did c1cc(N[C@@H]2CCNC2)nc(-c2cnc3ccc(-c4cn[nH]c4)cn23)c1 get here?
Marked response: false

Exam item: Give the logged outcome of this assay for the following compound: O=C(NC1CC1)c1cccc(-c2ccc3c(NC(=O)C4CC4)n[nH]c3c2)c1
Marked response: false

Exam item: Assay outcome for Cn1c(Nc2ccc(C(F)(F)F)cc2)nc2cc(Oc3ccnc(-c4ncc(C(F)(F)F)[nH]4)c3)ccc21 : what was it?
Marked response: false

---

assay: Quantitative High-Throughput drug screen in 47 multiple myeloma cell lines against the NCATS MIPE library collection: NCIH929_DSMZ cell viability assay (AID 1918978); settings: NCI-H929 myeloma viability, CellTiter-Glo ATP, 48 h; series mostly up to 45.8 µM; further: nearly all actives have a fitted effect of over 35% in size
Results filed as inconclusive are left out. Calls of active or inactive are those of the source. Calls follow the shape of the dose curve; as a rule, active = well fitted cell-killing curve with a large enough effect; inconclusive = small, poorly fitted or top-dose-only effect; inactive = no such curve, though single readings can be large or run the other way.
Outcomes you can answer with include only these: class 1 for active, class 0 for inactive

| Compound | Qualitative label |
| --- | --- |
| CCCCCN=C(N)NN=Cc1c[nH]c2ccc(OC)cc12 | class 1 |
| CC(C)C[C@H](NC(=O)[C@@H](NC(=O)c1cccc(-c2ccccc2)n1)[C@@H](C)O)B(O)O | class 1 |
| CCOc1cc2ncc(C#N)c(Nc3ccc(OCc4ccccn4)c(Cl)c3)c2cc1NC(=O)C=CCN(C)C | class 1 |

Exam item: Recorded test outcome, item C[C@H](CCC(=O)O)[C@H]1CCC2C3C[C@H](O)[C@@H]4C[C@H](O)CC[C@]4(C)C3CC[C@@]21C (some centres undefined)
Marked response: class 0

---

assay: qHTS for identification of novel therapeutic agents for treatment of microphthalmiaassociated transcription factor (MiT) renal cell carcinoma (RCC) (AID 1963991); conditions: TFE3-RCC viability, CellTiter-Glo, 48 h; measured here: UOK124 Z-AUC; stronger effect = lower value;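 further: curves scaled with 100% = DMSO viability and 0% = empty wells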
Results filed as inconclusive are left out.
Rule for this label: YES means z-score is less than 0.4; NO means z-score is at least 0.4.

| Compound | Qualitative label |
| --- | --- |
| CCCCCCCCCCCCCCCC(=O)OC[C@@H](NC(=O)C(Cl)Cl)[C@H](O)c1ccc([N+](=O)[O-])cc1 | YES |
| Nc1cccc2c1C(=O)N(C1CCC(=O)NC1=O)C2=O (stereo not given) | YES |
| C=C[C@@H]1CN2CCC1C[C@H]2[C@H](O)c1ccnc2ccc(OC)cc12 (stereo not given in full) | YES |
| C=C(C)[C@@H]1CC[C@]2(C)CC[C@]3(C)[C@H](CC[C@@H]4[C@@]5(C)CC[C@H](O)C(C)(C)[C@H]5CC[C@]43C)[C@@H]12 | NO |

Exam item: Please indicate whether the reported z-score of CC(=O)OCC(=O)[C@@]1(O)CC[C@H]2[C@@H]3CCC4=CC(=O)CC[C@]4(C)[C@@H]3C(=O)C[C@@]21C is strictly below 0.4.
Marked response: NO

---

assay: Quantitative High-Throughput drug screen in 47 multiple myeloma cell lines against the NCATS MIPE library collection: EJM_DSMZ cell viability assay (AID 1918926; further: nearly all actives have a fitted effect of over 30% in size); conditions: EJM myeloma cell viability, CellTiter-Glo ATP, 48 h; series mostly up to 45.8 µM
Records with an inconclusive call do not appear. Calls of active or inactive are those of the source. Calls follow the shape of the dose curve; as a rule, active = well fitted cell-killing curve with a large enough effect; inconclusive = small, poorly fitted or top-dose-only effect, or effect the other way; inactive = no such curve, though single readings can be large or run the other way. Positions of bridges follow the written chain, without caps; N, C: chain ends. Non-standard residues stand in square brackets, D forms with d. Residues, ends and D or L forms follow the SMILES beside them. ξ: configuration not given here. *: point of attachment. Octanoyl(6-Me) = CCC(C)CCCCC(=O)*; ξThr(3R) = C[C@@H](O)C(N)C(=O)O; dDab = NCC[C@@H](N)C(=O)O; Dab = NCC[C@H](N)C(=O)O
Respond with a class label; see y for active, n for inactive

Use these answered entries as a reference point.
| Compound | Qualitative label |
| --- | --- |
| C[C@@H](Oc1ccc2[nH]nc(C=Cc3cnn(CCO)c3)c2c1)c1c(Cl)cncc1Cl | y |
| O=C(CCCCCCC(=O)Nc1cccnc1)NO | y |
| COc1cc2c(cc1OC)[C@@H]1C(=O)c3ccc4c(c3O[C@@H]1CO2)C=CC(C)(C)O4 | y |
| c1cncc(CN2CCC(n3ncc4c(N5CCOCC5)nc(-c5ccc6[nH]ccc6c5)nc43)CC2)c1 | y |
| C[C@@]12C(=O)OC(=O)[C@@]1(C)C1CCC2O1 | y |

Exam item: What did this assay record as the result for COc1cc(C=CC(=O)CC(=O)C=Cc2ccc(O)c(OC)c2)ccc1O ?
Marked response: y

Exam item: Dear colleague, could you share the recorded outcome for CCC(C)CCCCC(=O)N[C@@H](CCN)C(=O)NC(C(=O)N[C@H](CCN)C(=O)N[C@@H]1CCNC(=O)C([C@@H](C)O)NC(=O)[C@@H](CCN)NC(=O)[C@@H](CCN)NC(=O)[C@@H](CC(C)C)NC(=O)[C@H](Cc2ccccc2)NC(=O)[C@H](CCN)NC1=O)[C@@H](C)O (stereo partly drawn) ({Octanoyl(6-Me)}-[Dab][ξThr(3R)][dDab][dDab][Dab]F[dL][dDab][dDab][ξThr(3R)]; lactam 4-C) when you have a moment?
Marked response: n

Exam item: Test call for this compound, please: CCN(CC)CCNC(=O)c1c(C)[nH]c(C=C2C(=O)Nc3ccc(F)cc32)c1C
Marked response: y

Exam item: Write down the call the test reported for this compound. Item: COc1cc(C(=O)NC2CCN(C)CC2)ccc1Nc1ncc2c(n1)N(C1CCCC1)CCC(=O)N2C(C)C
Marked response: y
